test: in vitro; conditions: human
measuredEndpoint: Papp (×10⁻⁶ cm/s)
Write the answer as a number in ×10⁻⁶ cm/s, unit excluded.

Exam item: # Papp lookup, item CN1CCCC1c1cccnc1 (stereo not shown) [HBSS with nicotine, nicotine]
Marked response: 8.5

Values compiled from patent US20160015703A1.
